target.entity: 3',5'-cyclic-AMP phosphodiesterase 4D (Homo sapiens, UniProt Q08499)
Sequence (Q08499 whole entry): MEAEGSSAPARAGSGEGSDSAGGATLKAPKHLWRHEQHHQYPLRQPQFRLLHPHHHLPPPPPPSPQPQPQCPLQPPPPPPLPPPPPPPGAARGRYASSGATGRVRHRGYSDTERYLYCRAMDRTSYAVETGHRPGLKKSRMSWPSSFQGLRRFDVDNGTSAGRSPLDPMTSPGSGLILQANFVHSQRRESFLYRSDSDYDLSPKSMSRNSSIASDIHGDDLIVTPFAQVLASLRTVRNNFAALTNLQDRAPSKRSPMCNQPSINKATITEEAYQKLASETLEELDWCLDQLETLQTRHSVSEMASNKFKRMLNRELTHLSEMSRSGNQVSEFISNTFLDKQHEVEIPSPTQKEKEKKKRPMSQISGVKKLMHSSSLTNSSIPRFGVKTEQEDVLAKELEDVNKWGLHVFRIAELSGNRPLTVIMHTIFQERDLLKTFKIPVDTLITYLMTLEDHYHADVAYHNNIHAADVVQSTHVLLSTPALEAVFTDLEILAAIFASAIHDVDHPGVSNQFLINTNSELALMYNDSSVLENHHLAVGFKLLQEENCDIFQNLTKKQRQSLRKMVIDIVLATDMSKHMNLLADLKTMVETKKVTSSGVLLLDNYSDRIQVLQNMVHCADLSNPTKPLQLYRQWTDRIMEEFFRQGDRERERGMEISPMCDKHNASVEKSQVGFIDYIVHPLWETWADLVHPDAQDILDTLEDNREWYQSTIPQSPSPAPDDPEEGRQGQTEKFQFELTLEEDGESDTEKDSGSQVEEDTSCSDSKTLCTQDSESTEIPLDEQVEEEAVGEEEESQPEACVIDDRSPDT
measured.property: IC50 (nM)
Numbers only, in nM.

The cases that follow already have their IC50 on record.
[[record]]
molecule = "CC(C)c1cc(-c2cccc(CC(c3ccncc3)C(C)(C)O)c2)c2ncccc2c1 (configuration not stated)"
meas_value = 4.4

[[record]]
molecule = "CC(C)NC(=O)/C(=C\\c1cccc(-c2cc(C(C)(C)C#N)cc3cccnc23)c1)c1ccc(S(C)(=O)=O)cc1"
meas_value = 0.5

[[record]]
molecule = "Cc1ccc(/C(=C/c2cccc(-c3cc(C(C)C)cc4cccnc34)c2)c2ccc(S(C)(=O)=O)cc2)nc1"
meas_value = 0.2

[[record]]
molecule = "CC(C)NC(=O)/C(=C/c1cccc(-c2cc(C(C)C)cc3cccnc23)c1)c1ccc(S(C)(=O)=O)cc1"
meas_value = 0.6


Please report IC50 for every entry that follows.
1. Cc1noc(/C(=C/c2cccc(-c3cc(C(C)C)cc4cccnc34)c2)c2ccc(S(C)(=O)=O)cc2)n1
2. [O-][n+]1cccc(C[C@@H](c2ccc(OC(F)F)c(OC3CC3)c2)c2cnc(C(O)(C(F)(F)F)C(F)(F)F)s2)c1
3. Cc1noc(/C(=C/c2cccc(-c3cc(C(C)C)cc4cccnc34)c2)c2ccccn2)n1

0.2
0.4
0.6
